# target-system: Left-right determination factor 2 (Homo sapiens) (UniProt O00292)
# Sequence (O00292 whole entry, looked up): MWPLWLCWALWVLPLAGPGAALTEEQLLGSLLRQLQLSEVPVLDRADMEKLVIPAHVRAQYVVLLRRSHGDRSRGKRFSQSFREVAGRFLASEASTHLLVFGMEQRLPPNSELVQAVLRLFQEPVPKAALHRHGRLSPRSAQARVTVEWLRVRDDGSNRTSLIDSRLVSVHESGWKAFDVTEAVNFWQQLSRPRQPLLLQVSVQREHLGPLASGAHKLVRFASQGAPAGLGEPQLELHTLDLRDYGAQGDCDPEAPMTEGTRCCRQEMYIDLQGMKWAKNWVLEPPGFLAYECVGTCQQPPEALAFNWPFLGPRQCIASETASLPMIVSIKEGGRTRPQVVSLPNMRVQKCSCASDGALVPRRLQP
# assay: LEFTY2 binders on small-molecule microarrays, primary screen, biochemical, small-molecule microarray, 635 nm fluorescence scan (AID 1110)
# experimental-conditions: LEFTY2 binding, higher = more signal
property-name: composite z-score
Lab note: jot the number down without any unit.

Answer briefly: composite z-score recorded on Left-right determination factor 2 (Homo sapiens) (UniProt O00292) for COCC1C2CC[C@H]3C(OCc4ccc(OC)cc4)OC[C@]4(C)[C@H]3C2=C(CN4C(=O)OC(C)(C)C)[C@H](C)C1COC (stereo partly drawn)
0.366

Answer briefly: composite z-score recorded on Left-right determination factor 2 (Homo sapiens) (UniProt O00292) for CCOC(=O)C1=CCC(c2ccccc2)N(S(=O)(=O)c2ccc([N+](=O)[O-])cc2)C1 (stereo not drawn)
-0.276

Answer briefly: composite z-score recorded on Left-right determination factor 2 (Homo sapiens) (UniProt O00292) for `CCCCC(=O)N(CCN1CCOCC1)[C@@H]1CC(C(=O)NCCO)=C[C@H](Oc2c(I)cc(CO)cc2OC)[C@H]1O`
0.653

Answer briefly: composite z-score recorded on Left-right determination factor 2 (Homo sapiens) (UniProt O00292) for `CCCC=C(CCC)[C@@H](NS(=O)(=O)c1cccc2cccnc12)c1ccc(-c2ccccc2)cc1`
0.601

Answer briefly: composite z-score recorded on Left-right determination factor 2 (Homo sapiens) (UniProt O00292) for CCOC(=O)C1=CCN(S(=O)(=O)c2ccc(C)cc2)C1c1ccccc1 (stereo not drawn)
0.564

Answer briefly: composite z-score recorded on Left-right determination factor 2 (Homo sapiens) (UniProt O00292) for `COCC(=C=CC[C@@H](O)c1cccc(OCCO)c1)CCO`
-0.313

Answer briefly: composite z-score recorded on Left-right determination factor 2 (Homo sapiens) (UniProt O00292) for `CN(C)C(=O)[C@@]1(Cc2ccccc2)COC(c2ccc(OCCCO)cc2)=N1`
-0.906

Answer briefly: composite z-score recorded on Left-right determination factor 2 (Homo sapiens) (UniProt O00292) for `Cc1ccc(S[C@]2(C(=O)NCc3ccccc3)CC(=O)N(Cc3cc(C(F)(F)F)cc(C(F)(F)F)c3)[C@@H]2c2ccc(CO)cc2I)cc1`
-1.24

Taken from PubChem BioAssay.
